Data origin, for the record: PubChem BioAssay

Assay: viability gain of MRP-1-high H69AR cells under doxorubicin, pilot screen, MRP-1 activator project, CellTiter-Glo, duplicate (AID 807);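 also: compound pretreatment 18-22 h then 72 h combined with doxorubicin; 0% = doxorubicin alone and 100% = vehicle without doxorubicin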
Details: H69AR viability with doxorubicin, CellTiter-Glo luminescence; at 10 µM; active compounds read high
The reader will find reported viability increase values listed item by item below.
Answer format: numeric, % implied, no suffix.

Answered cases to consult:
Ask: Need viability increase, item CCN(CC)S(=O)(=O)c1ccc(Cl)c(C(=O)NC)c1
Reply: -0.22

Ask: Need viability increase, item CCOC(=O)C1CCN(S(=O)(=O)c2ccc(OCC)cc2)CC1
Reply: -2.24

Ask: Need viability increase, item COc1ccc(C(=O)Nc2ccc3oc(-c4cccc(F)c4)nc3c2)cc1OC
Reply: -2.46

Ask: Need viability increase, item COc1cccc(C(=O)Nc2nnc(-c3ccc(F)cc3)o2)c1
Reply: -3.38

Ask: Need viability increase, item CCN1CCN(c2ncnc3c2sc2nc(N4CCOCC4)c4c(c23)CCC4)CC1
Reply: -4.51

Ask: Need viability increase, item CCCCCn1c(N(C)Cc2ccccc2)nc2c1c(=O)[nH]c(=O)n2C
Reply: -0.81

Next:
Ask: Need viability increase, item CCOc1ccc(/C=C\C(C)=N\O)cc1
Reply: -2.74

Ask: Need viability increase, item O=C(c1ccccc1)N1CCn2c(nc3ccccc32)C1
Reply: -0.73

Ask: Need viability increase, item COc1ccccc1NC(=O)N1CCN(c2ccccn2)CC1
Reply: 0.85

Ask: Need viability increase, item CCOc1ccc(CCNC(=O)c2oc3c(c2C)-c2[nH]ncc2CC3)cc1OCC
Reply: -2.93

Ask: Need viability increase, item CC(C)C(NS(=O)(=O)c1ccc2c(c1)oc(=O)n2C)C(=O)N1CCN(C2CCCCC2)CC1 (stereo not drawn)
Reply: -3.02

Ask: Need viability increase, item Cc1nn(CCCC(=O)N2CCc3ccccc3C2)c(=O)c2cc3sccc3n12
Reply: -1.17

Ask: Need viability increase, item CCSc1nnc(-c2ccc(Cl)cc2Cl)o1
Reply: -5.13

Ask: Need viability increase, item CCOc1ccc(C2c3c(oc4cc(C)c(C)cc4c3=O)C(=O)N2CCCN(C)C)cc1OC (stereo not drawn)
Reply: -1.6

----------
The reader will find reported growth inhibition values listed item by item below.
Test: OD615 S. cerevisiae growth inhibition, permissive medium, pilot counter-assay, permissive growth control for S. cerevisiae lifespan shortening project (AID 705)
Settings: OD615, 24 h, at 10 µM, active compounds read high
Answer format: numeric, % implied, no suffix.

Answered cases to consult:
Ask: Need growth inhibition, item Cc1cccc(NC(=O)Cn2cnc3sc(C)c(S(=O)(=O)N4CCC(C)CC4)c3c2=O)n1
Reply: -9.9

Ask: Need growth inhibition, item CC1Cn2c(COc3ccccc3)nnc2S1 (stereo not drawn)
Reply: -8.31

Ask: Need growth inhibition, item Cn1c2ccc(CC(=O)O)cc2c2cc(CC(=O)O)ccc21
Reply: 1.85

Ask: Need growth inhibition, item COc1ccc(C2(O)CCN(C(=O)Cc3cccnc3)CC2)cc1
Reply: -20.4

Ask: Need growth inhibition, item O=C(c1ccccc1)N1CCN(c2ccc(NCc3ccc4c(c3)OCO4)cc2)CC1
Reply: -15.1

Next:
Ask: Need growth inhibition, item Cc1ccc(C(=O)COC(=O)c2cnccn2)cc1
Reply: -15.1

Ask: Need growth inhibition, item CCOC(=O)NC(Nc1cc(C)ccn1)(C(F)(F)F)C(F)(F)F
Reply: 0.885

Ask: Need growth inhibition, item O=c1oc(-c2cccnc2)nc2ccccc12
Reply: -8.07

Ask: Need growth inhibition, item Nc1cc(=O)[nH]c(SCc2nc3ccccc3n2Cc2ccccc2)n1
Reply: -2.77

Ask: Need growth inhibition, item CCOC(=O)CSCc1nc(-c2ccc(Cl)cc2)oc1C
Reply: -11.6

Ask: Need growth inhibition, item C=CCN1C(=O)C2C(C(=O)NC)C3(C)C=CC2(O3)C1C(=O)NCc1ccc(OC)cc1 (stereo not drawn)
Reply: -5.37

Ask: Need growth inhibition, item Cc1sc2nc(SCC(=O)N(CCO)CCO)n(C3CCCCC3)c(=O)c2c1C
Reply: -10.3
